meta.source: patent US20050026841A1

Molecular target: T1, HAb18G/CD147 on HHCC hepatocellular carcinoma cells (human, UniProt P35613 140-385, glycosylated (mode not specified))
T1 sequence: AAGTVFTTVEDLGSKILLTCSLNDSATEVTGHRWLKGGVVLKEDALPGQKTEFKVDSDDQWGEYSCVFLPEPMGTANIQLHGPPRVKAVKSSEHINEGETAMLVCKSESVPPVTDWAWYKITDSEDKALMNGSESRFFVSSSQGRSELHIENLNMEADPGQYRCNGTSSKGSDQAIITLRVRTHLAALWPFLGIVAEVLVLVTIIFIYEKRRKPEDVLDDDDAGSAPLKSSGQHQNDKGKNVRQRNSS
Assay: cell-based or functional assay
Reported endpoint: infiltrative cells

Batch of 7 binders: report infiltrative cells for each.
1. MTHDPVISLPTT [HAb18G/CD147 binding/antagonistic peptide (1)]
2. ANIVPIHANHFQ [HAb18G/CD147 binding/antagonistic peptide (7)]
3. YPFHHKHWHRPN [HAb18G/CD147 binding/antagonistic peptide (6)]
4. LHRHSHGHSYKS [HAb18G/CD147 binding/antagonistic peptide (2)]
5. MHKHPHGSQGPT [HAb18G/CD147 binding/antagonistic peptide (8)]
6. YKLPGHHHHYRP [HAb18G/CD147 binding/antagonistic peptide (9)]
7. IGWHYYLRTQHS [HAb18G/CD147 binding/antagonistic peptide (5)]

Outgoing:
1: 4.4 cells; 2: 8.8 cells; 3: 7.6 cells; 4: 28 cells; 5: 6.4 cells; 6: 3.8 cells; 7: 23.2 cells

Batch of 2 binders: report infiltrative cells for each.
1. KYPHQHLHMHDS [HAb18G/CD147 binding/antagonistic peptide (4)]
2. GHWHNHRHQAPL [HAb18G/CD147 binding/antagonistic peptide (3)]

Outgoing:
["12.2 cells", "2 cells"]
